# Tested on: SNB-19 CNS
# Method Notes: NCI tumour cell line growth inhibition, 48 h
Measured Endpoint: GI50

-- ask Any idea what GI50 was measured for "C=CCn1c(=O)c2cnc(Nc3ccc(N4CCN(C)CC4)cc3)nc2n1-c1ccc2c(n1)[C@@](O)(CC)CC2" ?
-- reply 1.85 µM

-- ask Any idea what GI50 was measured for O=C(/C=C/C12c3ccccc3C(c3ccccc31)C1C(=O)N(c3ccccc3)C(=O)C12)c1ccc(Cl)cc1 (centres undefined) ?
-- reply 2.68 µM

-- ask Any idea what GI50 was measured for "Cc1cc(N2CCN(C)CC2)nc(NCc2cc(Nc3ccnc4cc(Cl)ccc34)ccc2F)n1" ?
-- reply 3.32 µM

-- ask Any idea what GI50 was measured for "Cc1cc2cccnc2c2ncccc12" ?
-- reply 2.27 µM

-- ask Any idea what GI50 was measured for COc1cc2c(c(OC)c1OC)C(=O)CC(c1cccc(NC(=O)c3ccc(Br)cc3)c1)O2 (centres undefined) ?
-- reply 4.25 µM

-- ask Any idea what GI50 was measured for "COc1cccc(C(=O)Nc2ccc(CN3CCc4nc5cc(OC)c(OC)cc5cc43)cc2)c1" ?
-- reply 8.12 µM

-- ask Any idea what GI50 was measured for "Cc1oc2nc[nH]c(=O)c2c1C(=O)/C=C/c1ccc(Cl)cc1" ?
-- reply 3.28 µM

-- ask Any idea what GI50 was measured for "CC1=CC[C@@H]2C(C)(C)C(=O)CC[C@@]2(C)[C@@H]1COc1ccc2ccc(=O)oc2c1" ?
-- reply 32.9 µM

-- ask Any idea what GI50 was measured for "CN1CCN(c2ccc(-c3ccc4ncc(C#N)c(Nc5ccc(F)c(Cl)c5)c4c3)cc2)CC1" ?
-- reply 3.36 µM

----------
For each entry below, report its GI50 value.
# System: T-47D breast
# Method Notes: NCI tumour cell line growth inhibition, 48 h

-- ask Any idea what GI50 was measured for "Cn1cc(C2=C(c3c4n(c5ccccc35)CCCC4)C(=O)NC2=O)c2ccccc21" ?
-- reply > 15500 nM

-- ask Any idea what GI50 was measured for "CCN(CC)C(=O)CC1=C(C)/C(=C/c2[nH]c(-c3ccc[nH]3)cc2OC)N=C1C" ?
-- reply 272 nM

-- ask Any idea what GI50 was measured for "COc1cccc(C(=O)Nc2ccc(CN3CCc4nc5cc(OC)c(OC)cc5cc43)cc2)c1" ?
-- reply 4490 nM

-- ask Any idea what GI50 was measured for "N#CC(C#N)=Cc1c(-c2ccccc2)[nH]c2ccccc12" ?
-- reply 4230 nM

-- ask Any idea what GI50 was measured for "CC[C@@]1(OC(=O)CN)C(=O)OCc2c1cc1n(c2=O)Cc2cc3cc4c(cc3nc2-1)OCO4" ?
-- reply < 10 nM

-- ask Any idea what GI50 was measured for "COc1cc(/C=N/Nc2ncnc3c2cnn3C(C)C)ccc1O" ?
-- reply 5310 nM

-- ask Any idea what GI50 was measured for "C=CCn1c(=O)c2cnc(Nc3ccc(N4CCN(C)CC4)cc3)nc2n1-c1ccc2c(n1)[C@@](O)(CC)CC2" ?
-- reply 2170 nM

-- ask Any idea what GI50 was measured for "COc1cc(-c2n/c(=C\c3c(O)[nH]c4ccc(Cl)cc34)cc3c2=Nc2ccccc2-3)cc(OC)c1OC" ?
-- reply 1280 nM

-- ask Any idea what GI50 was measured for COc1cc2c(c(OC)c1OC)C(=O)CC(c1cccc(NC(=O)c3ccc(Br)cc3)c1)O2 (centres undefined) ?
-- reply 1410 nM

----------
# Test system: UO-31 renal
# Method Notes: NCI tumour cell line growth inhibition, 48 h
For each entry below, report its TGI value.

-- ask Any idea what TGI was measured for COc1ccc(C(C#N)NC23CC4CC(CC(C4)C2)C3)cc1OC (stereo not given) ?
-- reply > 100 µM

-- ask Any idea what TGI was measured for "CC1(C)OCC2(CO1)CSCCCSCC1(COC(C)(C)OC1)CSCCCSC2" ?
-- reply > 100 µM

-- ask Any idea what TGI was measured for "CN(C)/C(N)=N/C(N)=Nc1cccc(Cl)c1" ?
-- reply > 100 µM

-- ask Any idea what TGI was measured for "O=S(=O)(C(=Ic1ccccc1)S(=O)(=O)C(F)(F)C(F)(F)C(F)(F)C(F)(F)F)C(F)(F)C(F)(F)C(F)(F)C(F)(F)F" ?
-- reply 25.8 µM

-- ask Any idea what TGI was measured for "O=C(CC(=O)c1ccc([N+](=O)[O-])cc1)C(=O)Nc1nccs1" ?
-- reply > 100 µM

-- ask Any idea what TGI was measured for C=CCN1C(=O)CC1N(CC=C)S(=O)(=O)c1ccc(C)cc1 (stereo not given) ?
-- reply > 100 µM

-- ask Any idea what TGI was measured for O=C1c2ccccc2NC(c2cc(Cl)cc(Cl)c2O)N1CCc1ccccn1 (stereo not given) ?
-- reply > 100 µM

-- ask Any idea what TGI was measured for "C[n+]1noc(/N=N\[O-])c1-c1cc(-c2c(/N=N\[O-])on[n+]2C)cc(-c2c(/N=N/[O-])on[n+]2C)c1" ?
-- reply > 100 µM

-- ask Any idea what TGI was measured for "CC1=CC[C@@H]2C(C)(C)C(=O)CC[C@@]2(C)[C@@H]1COc1ccc2ccc(=O)oc2c1" ?
-- reply 34.9 µM

-- ask Any idea what TGI was measured for CNC(=S)N/N=C1\CC(c2ccccc2)Oc2ccccc21 (stereo not given) ?
-- reply > 100 µM

-- ask Any idea what TGI was measured for Nc1ncnc2c1ncn2C1OC(CSC(F)(F)F)C(O)C1O (stereo not given) ?
-- reply > 100 µM

-- ask Any idea what TGI was measured for O=C(c1ccccc1)C(c1ccccc1)C1(O)C(=O)Nc2ccccc21 (stereo not given) ?
-- reply > 100 µM

-- ask Any idea what TGI was measured for NCCC(=O)N[C@H](Cc1cc(O)c(O)c(SCC(NC(=O)CC[C@H](N)C(=O)O)C(=O)NCC(=O)O)c1)C(=O)O (stereo not given in full) ?
-- reply > 50 µM

-- ask Any idea what TGI was measured for "CC1(C)OC(=O)[C@@](C)([C@H](O)c2ccccc2)O1" ?
-- reply > 100 µM

-- ask Any idea what TGI was measured for "C/C(=N/NC(=O)c1ccncc1)c1ccc(NC(=O)C(=O)Nn2c(=S)[nH]c3ccccc3c2=O)cc1" ?
-- reply > 100 µM

-- ask Any idea what TGI was measured for "COc1ccc(/C(CCl)=C(\Nc2ccccc2)c2ccc(OC)c(OC)c2)cc1OC" ?
-- reply > 100 µM

-- ask Any idea what TGI was measured for "C=C1C(=O)O[C@H]2[C@H]1CC/C(Cn1cc(CNCCc3c[nH]c4ccc(Cl)cc34)nn1)=C\CC[C@@]1(C)O[C@@H]21" ?
-- reply 19.4 µM

-- ask Any idea what TGI was measured for Nc1nc(Cl)c(N)c(NCC2(CO)CC(Cc3ccccc3)C2)n1 (stereo not given) ?
-- reply > 100 µM

-- ask Any idea what TGI was measured for CC(NC(=O)C(OC(=O)C(C)NC(=O)OC(C)(C)C)C(C)C)C(=O)OC(C(=O)O)C(C)C (stereo not given) ?
-- reply > 100 µM

-- ask Any idea what TGI was measured for COC(=O)C1CC(=O)CCC1c1ccccc1 (stereo not given) ?
-- reply > 100 µM

----------
# Tested on: SK-MEL-28 melanoma
# Method Notes: NCI tumour cell line growth inhibition, 48 h
For each entry below, report its TGI value.

-- ask Any idea what TGI was measured for "CCCCN(CCCC)c1ccc(C(=N)c2ccc(N(C)C)cc2)cc1" ?
-- reply 2.6 µM

-- ask Any idea what TGI was measured for COC(=O)C1CC(=O)CCC1c1ccccc1 (stereo not given) ?
-- reply > 100 µM

-- ask Any idea what TGI was measured for "COc1ccc(Cl)cc1Nc1nc(C(F)(F)F)ccc1C(=O)N/N=C/c1ccc([N+](=O)[O-])cc1" ?
-- reply > 100 µM

-- ask Any idea what TGI was measured for COC(=O)CCC1(C)C2CCC1(C)/C(=N/O)C2 (stereo not given) ?
-- reply > 100 µM

-- ask Any idea what TGI was measured for "CC1=C(C(=O)N[C@@H](Cc2ccccc2)C(=O)O)N2C(=O)[C@@H](NC(=O)[C@@H](N)CC(C)C)[C@H]2SC1" ?
-- reply > 100 µM

----------
# Tested on: TK-10 renal
# Method Notes: NCI tumour cell line growth inhibition, 48 h
For each entry below, report its TGI value.

-- ask Any idea what TGI was measured for O=C(c1ccccc1)C(c1ccccc1)C1(O)C(=O)Nc2ccccc21 (stereo not given) ?
-- reply > 100 µM

-- ask Any idea what TGI was measured for "O=C1NCN(c2ccccc2)C12CCN(CCc1ccc3[nH]c(=S)[nH]c3c1)CC2" ?
-- reply 92.9 µM

-- ask Any idea what TGI was measured for "CC1(C)C(c2ccccc2)=NN(O)c2ccccc21" ?
-- reply > 100 µM

-- ask Any idea what TGI was measured for CN1C(OCc2ccccc2)c2c(ccc3c2OCO3)C2C=Cc3cc4c(cc3C21)OCO4 (stereo not given) ?
-- reply 3.3 µM

-- ask Any idea what TGI was measured for "O=C(Cc1nc2ccccc2c(=O)n1-c1c(Cl)cccc1Cl)c1ccncc1" ?
-- reply > 10 µM
